# Target System: human PI3Kα protein (Homo sapiens, UniProt P42336)
# Construct: purchased Carna Biosciences, Inc; host or cells: baculovirus expression system
# Sequence (P42336 whole entry): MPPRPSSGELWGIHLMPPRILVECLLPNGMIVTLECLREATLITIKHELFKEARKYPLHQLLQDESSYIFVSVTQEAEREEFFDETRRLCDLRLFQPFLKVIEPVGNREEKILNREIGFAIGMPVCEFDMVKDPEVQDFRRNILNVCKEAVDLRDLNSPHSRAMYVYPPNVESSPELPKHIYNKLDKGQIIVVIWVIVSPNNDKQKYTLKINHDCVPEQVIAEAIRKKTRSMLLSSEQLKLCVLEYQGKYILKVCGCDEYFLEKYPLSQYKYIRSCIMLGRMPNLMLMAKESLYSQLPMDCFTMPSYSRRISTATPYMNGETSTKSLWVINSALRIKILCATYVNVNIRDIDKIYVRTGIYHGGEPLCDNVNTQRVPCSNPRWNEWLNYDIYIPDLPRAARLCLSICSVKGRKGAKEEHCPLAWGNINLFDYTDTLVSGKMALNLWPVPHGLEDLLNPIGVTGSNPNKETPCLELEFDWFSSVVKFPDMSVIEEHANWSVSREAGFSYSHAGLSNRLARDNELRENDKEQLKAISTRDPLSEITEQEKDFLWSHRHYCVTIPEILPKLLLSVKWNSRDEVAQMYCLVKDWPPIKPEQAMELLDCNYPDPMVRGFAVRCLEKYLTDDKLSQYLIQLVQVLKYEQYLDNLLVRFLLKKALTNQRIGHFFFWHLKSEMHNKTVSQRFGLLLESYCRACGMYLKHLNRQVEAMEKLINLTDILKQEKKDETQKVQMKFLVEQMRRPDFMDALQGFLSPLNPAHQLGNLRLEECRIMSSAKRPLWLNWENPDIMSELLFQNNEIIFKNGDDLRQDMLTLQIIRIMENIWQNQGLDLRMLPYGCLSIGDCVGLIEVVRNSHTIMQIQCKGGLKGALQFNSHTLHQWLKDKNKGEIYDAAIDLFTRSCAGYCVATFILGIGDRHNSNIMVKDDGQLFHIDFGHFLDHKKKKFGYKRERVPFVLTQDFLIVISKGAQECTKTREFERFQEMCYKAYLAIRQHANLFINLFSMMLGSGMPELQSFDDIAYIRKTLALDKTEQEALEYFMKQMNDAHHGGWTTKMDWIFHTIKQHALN
# Sequence (P27986 whole entry partner): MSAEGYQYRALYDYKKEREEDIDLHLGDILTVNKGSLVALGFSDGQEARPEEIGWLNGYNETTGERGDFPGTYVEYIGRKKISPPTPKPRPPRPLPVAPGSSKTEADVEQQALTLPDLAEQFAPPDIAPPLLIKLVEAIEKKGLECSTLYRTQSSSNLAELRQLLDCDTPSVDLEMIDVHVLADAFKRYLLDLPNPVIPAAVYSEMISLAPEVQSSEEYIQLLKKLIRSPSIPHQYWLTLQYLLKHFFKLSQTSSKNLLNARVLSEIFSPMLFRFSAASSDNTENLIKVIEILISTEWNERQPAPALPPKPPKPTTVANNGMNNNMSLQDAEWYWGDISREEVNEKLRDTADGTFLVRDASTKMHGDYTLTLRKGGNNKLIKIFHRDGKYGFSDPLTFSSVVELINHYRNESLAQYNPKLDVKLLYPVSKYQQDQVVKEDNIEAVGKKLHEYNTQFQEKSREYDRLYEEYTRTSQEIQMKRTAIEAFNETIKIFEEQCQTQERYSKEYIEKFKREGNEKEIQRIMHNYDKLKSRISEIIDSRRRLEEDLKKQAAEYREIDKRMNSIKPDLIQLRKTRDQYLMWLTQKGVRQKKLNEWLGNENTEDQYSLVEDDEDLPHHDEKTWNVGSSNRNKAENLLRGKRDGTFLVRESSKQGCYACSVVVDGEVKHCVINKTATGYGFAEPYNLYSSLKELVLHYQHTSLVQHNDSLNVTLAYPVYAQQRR
# Test Name: PI3Kα enzyme assay (ADP-Glo)
# Format: biochemical
# Condition Parameters: read-out: PI3Kα enzyme inhibitory activity
Quantity Measured: IC50

Consider the following illustrative entries.
c1cc(Nc2cnc3ccc(Nc4nnc(C5CCCC5)s4)nc3c2)ncn1 :: < 1000 nM
Cn1cc(-c2cnc3ccc(Nc4ccncn4)nc3c2)cn1 :: < 1000 nM

Field: IC50. Fill in for each record below.
1. CC(C)c1cnnc(Nc2ccc3ncc(-c4cccnc4O)cc3n2)c1
2. CC(C)c1nnc(Nc2ccc3nccc(-c4ccc(C(N)=O)cc4)c3n2)s1
3. CC(C)c1cnnc(Nc2ccc3ncc(-c4cn(C)nc4NCc4ccncc4)cc3n2)c1
4. CC(C)c1cnnc(Nc2ccc3ncc(-c4cnn(CCCN5CC(N)C5)c4)cc3n2)c1
5. CC(=O)N1CC(OCCn2cc(-c3cnc4ccc(Nc5cc(C(C)C)cnn5)nc4c3)cn2)C1
6. CC(C)c1cnnc(Nc2ccc3ncc(-c4cn(C)nc4N4CC5(COC5)C4)cc3n2)c1
7. COc1ccccc1-c1ccnc2ccc(Nc3nnc(C(C)C)s3)nc12

1000 to 10000 nM
< 1000 nM
< 1000 nM
< 1000 nM
< 1000 nM
< 1000 nM
< 1000 nM

---

Task for the reader: assign each of the following molecules its reported IC50.
# Target System: human PI3Kα protein (Homo sapiens)
# Construct: purchased Carna Biosciences, Inc; host or cells: baculovirus expression system
# Test Name: PI3Kα enzyme assay (ADP-Glo)
# Type: biochemical
# Condition Parameters: 4.5 nmol/L PI3Kα, PIP2 50 μmol/L, ATP 100 μmol/L; read-out: PI3Kα enzyme inhibitory activity

Consider the following illustrative entries.
CCc1nn(C)cc1-c1cnc2ccc(Nc3nnc(C4CCCC4)s3)nc2c1 [Example 0110] :: < 1 µM
CS(=O)(=O)N1CCC(Nc2cnc3ccc(Nc4nnc(C5CCCC5)s4)nc3c2)C1 (centres unmarked) [Example 0108] :: 1 to 10 µM
c1cnn(-c2cncc(Nc3cnc4ccc(Nc5nnc(C6CCCC6)s5)nc4c3)c2)c1 [Example 0073] :: < 1 µM
c1cc(OC2CCOCC2)ncc1Nc1cnc2ccc(Nc3nnc(C4CCCC4)s3)nc2c1 [Example 0093] :: 1 to 10 µM

Field: IC50. Fill in for each record below.
1. Cc1nnc(Nc2ccc3ncc(N(C)c4cnn(C)c4)cc3n2)s1 [Example 0185]
2. c1cc(CN2CCOCC2)ncc1Nc1cnc2ccc(Nc3nnc(C4CCCC4)s3)nc2c1 [Example 0085]
3. c1ncc(N2CCOCC2)cc1Nc1cnc2ccc(Nc3nnc(C4CCCC4)s3)nc2c1 [Example 0090]
4. Cn1cc(-c2cnc3ccc(Nc4ccccn4)nc3c2)cn1 [Example 0036]

1. < 1 µM
2. < 1 µM
3. < 1 µM
4. 1 to 10 µM

---

# Target System: GST fusion human ERK2 protein (Homo sapiens)
# Construct: purchased Carna Biosciences, Inc; host or cells: E. coli expression system
# Sequence (P28482 whole entry, the tested form may be a part): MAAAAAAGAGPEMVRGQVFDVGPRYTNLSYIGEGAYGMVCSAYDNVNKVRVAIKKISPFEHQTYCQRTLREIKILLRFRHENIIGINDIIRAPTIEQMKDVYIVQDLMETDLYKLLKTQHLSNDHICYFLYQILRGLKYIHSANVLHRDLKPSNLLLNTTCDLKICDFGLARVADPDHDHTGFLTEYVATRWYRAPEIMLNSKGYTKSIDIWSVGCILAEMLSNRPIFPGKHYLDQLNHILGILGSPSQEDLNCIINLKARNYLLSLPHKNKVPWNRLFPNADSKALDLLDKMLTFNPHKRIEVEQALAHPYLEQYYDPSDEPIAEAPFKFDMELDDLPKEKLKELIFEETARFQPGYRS
# Test Name: ERK2 enzyme assay (2)
# Type: biochemical
# Condition Parameters: ERK2 enzyme assay (2); read-out: ERK2 enzyme inhibitory activity (2)
Quantity Measured: IC50

Consider the following illustrative entries.
CC(C)c1cnnc(Nc2ccc3ncc(-c4cnn(C(C)c5ccccn5)c4)cc3n2)c1 (centres unmarked) :: < 1000 nM
CC(C)c1cnnc(Nc2ccc3ncc(-c4cnn(CCCN5CC(OCC(F)F)C5)c4)cc3n2)c1 :: < 1000 nM

Field: IC50. Fill in for each record below.
1. COc1cncc(-c2nn(C)cc2-c2cnc3ccc(Nc4cc(C(C)C)cnn4)nc3c2)c1
2. CC(C)c1cnnc(Nc2ccc3ncc(-c4cnn(CCCN5CCCOCC5)c4)cc3n2)c1
3. Cc1ccncc1-c1cnc2ccc(Nc3cc(C(C)C)cnn3)nc2c1
4. CC(C)c1cnnc(Nc2ccc3ncc(-c4cnn(CCCN5CC(C(=O)N6CCOCC6)C5)c4)cc3n2)c1
5. CC(C)c1cnnc(Nc2ccc3ncc(-c4cnn(CCCN5CCCCC5=O)c4)cc3n2)c1
6. Cc1ccc(S(=O)(=O)Nc2cnc3ccc(Nc4cc(C(C)C)cnn4)nc3c2)cc1

< 1000 nM
< 1000 nM
< 1000 nM
< 1000 nM
< 1000 nM
1000 to 10000 nM

Field: IC50. Fill in for each record below.
1. CC(C)c1cnnc(Nc2ccc3ncc(C(=O)Nc4ccccc4)cc3n2)c1
2. CC(C)c1cnnc(Nc2ccc3ncc(-c4cnn(Cc5ccccc5N)c4)cc3n2)c1
3. CC(C)c1cnnc(Nc2ccc3ncc(N4CCC(S(N)(=O)=O)C4)cc3n2)c1 (centres unmarked)
4. CC(C)c1cnnc(Nc2ccc3ncc(-c4cnn(CCCN5CC(C(=O)O)C5)c4)cc3n2)c1
5. CC(C)c1cnnc(Nc2ccc3ncc(-c4cn(C)nc4NC4CCCCC4)cc3n2)c1
6. CCc1nn(C)cc1-c1cnc2ccc(Nc3cc(C(C)C)cnn3)nc2c1
7. CC(C)c1cnnc(Nc2ccc3nccc(-c4ccncc4)c3n2)c1
8. CC(C)c1cnnc(Nc2ccc3ncc(-c4cn(C)nc4-c4cncs4)cc3n2)c1

1. 1000 to 10000 nM
2. < 1000 nM
3. 1000 to 10000 nM
4. < 1000 nM
5. < 1000 nM
6. < 1000 nM
7. < 1000 nM
8. < 1000 nM

Recorded result, CC(C)c1cnnc(Nc2ccc3ncc(-c4cnn(CCCN5CCOC[C@H]5C)c4)cc3n2)c1 , IC50: < 1000 nM
